# Test Target: Beta-1 adrenergic receptor (Homo sapiens, UniProt P08588)
# Sequence (P08588 whole entry): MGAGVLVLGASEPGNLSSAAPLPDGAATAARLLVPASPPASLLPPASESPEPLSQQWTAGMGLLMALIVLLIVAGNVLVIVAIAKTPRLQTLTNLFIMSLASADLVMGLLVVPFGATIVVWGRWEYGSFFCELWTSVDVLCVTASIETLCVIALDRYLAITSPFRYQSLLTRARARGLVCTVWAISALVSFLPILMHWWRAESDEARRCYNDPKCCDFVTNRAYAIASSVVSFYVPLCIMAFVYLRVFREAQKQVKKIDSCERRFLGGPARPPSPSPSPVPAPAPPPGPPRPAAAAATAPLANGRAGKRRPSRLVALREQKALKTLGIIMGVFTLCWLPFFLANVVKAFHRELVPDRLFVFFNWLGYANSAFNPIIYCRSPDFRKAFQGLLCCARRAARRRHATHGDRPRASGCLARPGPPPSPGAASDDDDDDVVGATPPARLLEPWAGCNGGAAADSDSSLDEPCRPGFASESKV
# Assay Comment: DRUGMATRIX: Adrenergic beta1 radioligand binding (ligand: [125I] Cyanopindolol)
# Format: cell membranes, CHO-K1, Membrane
# Condition Description: cho-k1; Not Active = under 50% inhibition at 10 µM
Endpoint: IC50

C=CC[C@@H]1/C=C(\C)C[C@H](C)C[C@H](OC)[C@H]2O[C@@](O)(C(=O)C(=O)N3CCCC[C@H]3C(=O)O[C@H](/C(C)=C/[C@@H]3CC[C@@H](O)[C@H](OC)C3)[C@H](C)[C@@H](O)CC1=O)[C@H](C)C[C@@H]2OC [TACROLIMUS ANHYDROUS] | Not Active
O=C1OC2(c3ccc(O)cc3Oc3cc(O)ccc32)c2ccccc21 [FLUORESCEIN] | Not Active
CC[C@@]1(O)C(=O)OCc2c1cc1n(c2=O)Cc2cc3ccccc3nc2-1 [CAMPTOTHECIN] | Not Active
